Source: paper PMC5355811

# Tested on: PC9 triple-mutant cells (C797S/T790M/del19)
# measurement_notes: CellTiter-Glo cell viability assay, PC9 triple mutant
# Type: cell-based
# experimental_parameters: read-out: IC50, PC9 triple
value_type: IC50 (nM)
Write the answer as a number in nM, unit excluded.

input: Give the value of IC50 reported for the following: COc1cc(N2CCC(N3CCN(C)CC3)CC2)ccc1Nc1ncc(Cl)c(Nc2ccccc2P(C)(C)=O)n1
output: 599

---

# Tested on: Ba/F3 cells of EGFR-del19
# measurement_notes: Drug sensitivity screening at 100 nM, Ba/F3 EGFR-del19
# Assay type: cell-based
# experimental_parameters: 100 nM, 72 h, DMSO = 100; experiment 3
value_type: Relative cell viability (% of DMSO control) in del19 Ba/F3 cells
// return just the number, without any unit appended

Some solved entries appear below for comparison.
# smiles_string, recorded_measurement
data = [
    ("CS(=O)(=O)N1CCN(Cc2cc3nc(-c4cccc5[nH]ncc45)nc(N4CCOCC4)c3s2)CC1", 45.9129),
    ("C[C@H]1Oc2cc(cnc2N)-c2c(nn(C)c2C#N)CN(C)C(=O)c2ccc(F)cc21", 108.837),
    ("CO[C@H]1C[C@@H]2CC[C@@H](C)[C@@](O)(O2)C(=O)C(=O)N2CCCC[C@H]2C(=O)O[C@H]([C@H](C)C[C@@H]2CC[C@@H](OCCO)[C@H](OC)C2)CC(=O)[C@H](C)/C=C(\\C)[C@@H](O)[C@@H](OC)C(=O)[C@H](C)C[C@H](C)/C=C/C=C/C=C/1C", 35.5918),
    ("Cc1nc2ccc(-n3ncc(C(=O)c4cc5ccccc5[nH]4)c3N)cc2[nH]1", 110.518),
]

input: Give the value of Relative cell viability (% of DMSO control) in del19 Ba/F3 cells reported for the following: COc1cc2c(Nc3ccc(Br)cc3F)ncnc2cc1OCC1CCN(C)CC1
output: 1.984

input: Give the value of Relative cell viability (% of DMSO control) in del19 Ba/F3 cells reported for the following: CC(=O)O[C@H]1C(=O)[C@@]2(C)[C@H]([C@H](OC(=O)c3ccccc3)[C@]3(O)C[C@H](OC(=O)[C@H](O)[C@@H](NC(=O)c4ccccc4)c4ccccc4)C(C)=C1C3(C)C)[C@]1(OC(C)=O)CO[C@@H]1C[C@@H]2O
output: 51.6533

input: Give the value of Relative cell viability (% of DMSO control) in del19 Ba/F3 cells reported for the following: CCc1cc2c(cc1N1CCC(N3CCOCC3)CC1)C(C)(C)c1[nH]c3cc(C#N)ccc3c1C2=O
output: 113.209

input: Give the value of Relative cell viability (% of DMSO control) in del19 Ba/F3 cells reported for the following: CC(=O)Nc1cccc(-n2c(=O)n(C3CC3)c(=O)c3c(Nc4ccc(I)cc4F)n(C)c(=O)c(C)c32)c1
output: 0.9176

input: Give the value of Relative cell viability (% of DMSO control) in del19 Ba/F3 cells reported for the following: COc1cc2c(Oc3ccc(NC(=O)C4(C(=O)Nc5ccc(F)cc5)CC4)cc3F)ccnc2cc1OCCCN1CCOCC1
output: 99.8956

input: Give the value of Relative cell viability (% of DMSO control) in del19 Ba/F3 cells reported for the following: COc1cc2nccc(Oc3ccc(NC(=O)NC4CC4)c(Cl)c3)c2cc1C(N)=O
output: 116.989

input: Give the value of Relative cell viability (% of DMSO control) in del19 Ba/F3 cells reported for the following: CO[C@H]1C[C@@H]2CC[C@@H](C)[C@@](O)(O2)C(=O)C(=O)N2CCCC[C@H]2C(=O)O[C@H]([C@H](C)C[C@@H]2CC[C@@H](O)[C@H](OC)C2)CC(=O)[C@H](C)/C=C(\C)[C@@H](O)[C@@H](OC)C(=O)[C@H](C)C[C@H](C)/C=C/C=C/C=C/1C
output: 36.4731

input: Give the value of Relative cell viability (% of DMSO control) in del19 Ba/F3 cells reported for the following: CCCS(=O)(=O)Nc1ccc(F)c(C(=O)c2c[nH]c3ncc(-c4ccc(Cl)cc4)cc23)c1F
output: 106.065

input: Give the value of Relative cell viability (% of DMSO control) in del19 Ba/F3 cells reported for the following: Cc1[nH]c(/C=C2\C(=O)Nc3ccc(S(=O)(=O)Cc4c(Cl)cccc4Cl)cc32)c(C)c1C(=O)N1CCC[C@@H]1CN1CCCC1
output: 113.452

input: Give the value of Relative cell viability (% of DMSO control) in del19 Ba/F3 cells reported for the following: Cn1cnc2c(F)c(Nc3ccc(Br)cc3Cl)c(C(=O)NOCCO)cc21
output: 50.3776

---

# System: PC9 parent cells (del19)
# measurement_notes: CellTiter-Glo cell viability assay, PC9 parent
# Format: cell-based
# experimental_parameters: read-out: IC50, PC9 parent
value_type: IC50
Reply with the number and its unit after it.

input: Give the value of IC50 reported for the following: COc1cc(N2CCC(N3CCN(C)CC3)CC2)ccc1Nc1ncc(Cl)c(Nc2ccccc2P(C)(C)=O)n1
output: 133 nM

---

# Tested on: Ba/F3 cells of EGFR-del19
# measurement_notes: Drug sensitivity screening at 100 nM, Ba/F3 EGFR-del19
# Format: cell-based
# experimental_parameters: 100 nM, 72 h, DMSO = 100; experiment 2
value_type: Relative cell viability (% of DMSO control) in del19 Ba/F3 cells
// return just the number, without any unit appended

Some solved entries appear below for comparison.
# molecule, recorded_measurement
rows = [
    ("CCCS(=O)(=O)Nc1ccc(F)c(C(=O)c2c[nH]c3ncc(-c4ccc(Cl)cc4)cc23)c1F [Vemurafenib, vemurafenib]", 116.573),
    ("COc1cc2c(Nc3ccc(Br)cc3F)ncnc2cc1OCC1CCN(C)CC1 [Vandetanib, vandetanib]", 1.585),
    ("Cn1cnc2c(F)c(Nc3ccc(Br)cc3Cl)c(C(=O)NOCCO)cc21 [AZD6244]", 57.317),
]

input: Give the value of Relative cell viability (% of DMSO control) in del19 Ba/F3 cells reported for the following: C[C@H]1Oc2cc(cnc2N)-c2c(nn(C)c2C#N)CN(C)C(=O)c2ccc(F)cc21 [Lorlatinib, lorlatinib]
output: 109.489

---

# Tested on: Ba/F3 cells of EGFR-del19
# measurement_notes: Drug sensitivity screening at 100 nM, Ba/F3 EGFR-del19
# Type: cell-based
# experimental_parameters: 100 nM, 72 h, DMSO = 100; experiment 1
Documented Relative cell viability (% of DMSO control) in del19 Ba/F3 cells across a set of molecules

Some solved entries appear below for comparison.
# molecule, recorded_measurement
rows = [
    ("CO[C@H]1C[C@@H]2CC[C@@H](C)[C@@](O)(O2)C(=O)C(=O)N2CCCC[C@H]2C(=O)O[C@H]([C@H](C)C[C@@H]2CC[C@@H](OCCO)[C@H](OC)C2)CC(=O)[C@H](C)/C=C(\\C)[C@@H](O)[C@@H](OC)C(=O)[C@H](C)C[C@H](C)/C=C/C=C/C=C/1C [Everolimus, everolimus]", 25.026),
    ("COc1cc2c(Oc3ccc(NC(=O)C4(C(=O)Nc5ccc(F)cc5)CC4)cc3F)ccnc2cc1OCCCN1CCOCC1 [Foretinib, foretinib]", 89.6065),
    ("C[C@H]1Oc2cc(cnc2N)-c2c(nn(C)c2C#N)CN(C)C(=O)c2ccc(F)cc21 [Lorlatinib, lorlatinib]", 99.5381),
]

input: Give the value of Relative cell viability (% of DMSO control) in del19 Ba/F3 cells reported for the following: Cn1cnc2c(F)c(Nc3ccc(Br)cc3Cl)c(C(=O)NOCCO)cc21 [AZD6244]
output: 44.8792

---

# Tested on: Ba/F3 cells of EGFR-T790M/del19
# measurement_notes: Drug sensitivity screening at 100 nM, Ba/F3 EGFR-T790M/del19
# Assay type: cell-based
# experimental_parameters: 100 nM, 72 h, DMSO = 100; experiment 1
value_type: Relative cell viability (% of DMSO control)
// return just the number, without any unit appended

# compound, measured_on, recorded_measurement
measured = [
    ("CCc1cc2c(cc1N1CCC(N3CCOCC3)CC1)C(C)(C)c1[nH]c3cc(C#N)ccc3c1C2=O", "Ba/F3 cells of EGFR-T790M/del19", 98.2015),
    ("COc1cc(N2CCC(N)CC2)ccc1Nc1ncc(Cl)c(-c2c[nH]c3ccccc23)n1", "Ba/F3 cells of EGFR-T790M/del19", 78.5876),
    ("CO[C@H]1C[C@@H]2CC[C@@H](C)[C@@](O)(O2)C(=O)C(=O)N2CCCC[C@H]2C(=O)O[C@H]([C@H](C)C[C@@H]2CC[C@@H](O)[C@H](OC)C2)CC(=O)[C@H](C)/C=C(\\C)[C@@H](O)[C@@H](OC)C(=O)[C@H](C)C[C@H](C)/C=C/C=C/C=C/1C", "Ba/F3 cells of EGFR-T790M/del19", 30.0228),
    ("Cc1nc2ccc(-n3ncc(C(=O)c4cc5ccccc5[nH]4)c3N)cc2[nH]1", "Ba/F3 cells of EGFR-T790M/del19", 87.4669),
    ("COc1cc2nccc(Oc3ccc(NC(=O)C4(C(=O)Nc5ccc(F)cc5)CC4)cc3)c2cc1OC", "Ba/F3 cells of EGFR-T790M/del19", 91.4569),
]

input: Give the value of Relative cell viability (% of DMSO control) reported for the following: O=C(C(c1ccccc1)c1ccccc1)N1CCN(CC(O)COc2cccc3ncccc23)CC1 (centres unmarked)
output: 106.534

input: Give the value of Relative cell viability (% of DMSO control) reported for the following: COc1cc(N2CCC(N3CCN(C)CC3)CC2)ccc1Nc1ncnc(Nc2ccccc2S(=O)(=O)C(C)C)n1
output: 93.2109

input: Give the value of Relative cell viability (% of DMSO control) reported for the following: CCCS(=O)(=O)Nc1ccc(F)c(C(=O)c2c[nH]c3ncc(-c4ccc(Cl)cc4)cc23)c1F
output: 92.0888

input: Give the value of Relative cell viability (% of DMSO control) reported for the following: C[C@H]1Oc2cc(cnc2N)-c2c(nn(C)c2C#N)CN(C)C(=O)c2ccc(F)cc21
output: 93.1744

input: Give the value of Relative cell viability (% of DMSO control) reported for the following: CS(=O)(=O)N1CCN(Cc2cc3nc(-c4cccc5[nH]ncc45)nc(N4CCOCC4)c3s2)CC1
output: 45.3105

input: Give the value of Relative cell viability (% of DMSO control) reported for the following: COc1cc2c(Nc3ccc(Br)cc3F)ncnc2cc1OCC1CCN(C)CC1
output: 95.2444

input: Give the value of Relative cell viability (% of DMSO control) reported for the following: CC(=O)Nc1cccc(-n2c(=O)n(C3CC3)c(=O)c3c(Nc4ccc(I)cc4F)n(C)c(=O)c(C)c32)c1
output: 11.0855

input: Give the value of Relative cell viability (% of DMSO control) reported for the following: Cn1cnc2c(F)c(Nc3ccc(Br)cc3Cl)c(C(=O)NOCCO)cc21
output: 105.003

input: Give the value of Relative cell viability (% of DMSO control) reported for the following: C=CCNC1=C2C[C@@H](C)C[C@H](OC)[C@H](O)[C@@H](C)/C=C(\C)[C@H](OC(N)=O)[C@@H](OC)/C=C\C=C(/C)C(=O)NC(=CC1=O)C2=O
output: 65.6049
